Consider the following binders and their measured median log2 fold change readings.
# target.under.test: T1, FBXL12, Q9NXK8
# T1 chain: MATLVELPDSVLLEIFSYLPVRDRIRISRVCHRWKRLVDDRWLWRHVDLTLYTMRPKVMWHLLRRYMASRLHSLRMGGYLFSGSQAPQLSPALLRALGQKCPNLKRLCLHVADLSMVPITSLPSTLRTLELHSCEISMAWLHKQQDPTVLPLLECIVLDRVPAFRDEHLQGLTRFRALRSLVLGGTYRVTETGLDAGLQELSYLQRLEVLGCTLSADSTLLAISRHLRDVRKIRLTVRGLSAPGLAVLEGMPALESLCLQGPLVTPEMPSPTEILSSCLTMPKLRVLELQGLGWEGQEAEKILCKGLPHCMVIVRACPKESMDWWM
# procedure.details: median log2 fold change of GCK-ALFA target abundance (FLAG IP / Myc IP barcode read proportion) (log2 ratio); each designed protein is fused to an ALFA-tag nanobody in HEK293 cells to bring the named protein to FLAG-tagged glucokinase (GCK); Myc marks an untargeted standard; higher = target protein stabilised (more abundant)
# condition.details: target protein: 3xFLAG-MCP-GCK-ALFA reporter; HEK293 landing pad (RPLP)
A bare number is all that is needed in reply.

Example entries and their recorded answers appear below.
binder: FBXL12_hotspot_69_89 (protein) MIEVRASESSIEYVKELAESALKLAKKALKEKDLETLLKLAEILISAAREIAKYEPEYALELLKELLKLLKEAKTEEAEKAAKEAEKAIKEIKKLIEERK
median log2 fold change: 0.238

binder: FBXL12_hotspot_59_81 (protein) MRRIIIRGEPEQRLRQFEALAKALIELIKEHKGTPEAERLEEMLVGLFEEALKYAKEEKDVELLEALIKLAKEALPYVSPEYQKRLEKIIEEAEKAIKEF
median log2 fold change: -0.417

Now let's try a different one.
Which median log2 fold change value belongs to FBXL12_hotspot_16_17 (protein) RDIVVVVGLLTAERVRSTLERAAEIVEGLRAAGVDRINVVIYAETEEAWAELERLEPTIVARIRAAVAAAGGELHIHRTREEAEKTREEILAEIDEEEEA ?
0.0399

Just for reference, the supplement of paper PMC12632987 is where these values come from.
